Listed variants paired with reported SGCB cell-surface expression functional score (log10)
B1: library; numbered along this chain (parent)
chain: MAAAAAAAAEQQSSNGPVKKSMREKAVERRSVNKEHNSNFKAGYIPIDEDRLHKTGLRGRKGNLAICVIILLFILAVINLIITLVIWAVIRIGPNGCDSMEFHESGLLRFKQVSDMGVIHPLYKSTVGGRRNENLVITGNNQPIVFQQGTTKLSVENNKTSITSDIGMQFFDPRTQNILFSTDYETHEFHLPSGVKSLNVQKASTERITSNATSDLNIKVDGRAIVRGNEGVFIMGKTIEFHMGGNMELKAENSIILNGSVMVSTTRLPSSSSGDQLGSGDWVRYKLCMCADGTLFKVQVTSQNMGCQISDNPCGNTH

Variants of: B1
Assay: SGCB cell-surface expression functional score (HA stain, bin4 vs bin1, normalised to synonymous) (log10 ratio); higher = more cell-surface SGCB (functional)
Measurement type: SGCB cell-surface expression functional score (log10)

INSERT INTO measurements (mutations, result) VALUES
  ('T238D', 0.72),
  ('S270R', 0.24),
  ('I45R', -0.17),
  ('C307V', -1.17),
  ('H53M', 0.08),
  ('C314E', -0.03),
  ('G278F', 0.12),
  ('L179E', -1.07),
  ('T151S', 0.27),
  ('I239T', 0.15),
  ('S254E', 1.37),
  ('G16K', 0.11),
  ('T83S', -0.2),
  ('R131F', -0.03),
  ('W87G', -0.12),
  ('C307P', -0.28),
  ('K20C', 0.12),
  ('N15A', 0.45),
  ('S273I', 0.05),
  ('S254K', 0.05),
  ('S193Y', -0.19),
  ('L287T', -0.72);
